# target-or-system: T1, human KDR-Fc fusion (R&D Systems #357-KD-050) (human, UniProt P35968 20-764)
# T1 construct: bought
# T1 sequence (P35968 20-764): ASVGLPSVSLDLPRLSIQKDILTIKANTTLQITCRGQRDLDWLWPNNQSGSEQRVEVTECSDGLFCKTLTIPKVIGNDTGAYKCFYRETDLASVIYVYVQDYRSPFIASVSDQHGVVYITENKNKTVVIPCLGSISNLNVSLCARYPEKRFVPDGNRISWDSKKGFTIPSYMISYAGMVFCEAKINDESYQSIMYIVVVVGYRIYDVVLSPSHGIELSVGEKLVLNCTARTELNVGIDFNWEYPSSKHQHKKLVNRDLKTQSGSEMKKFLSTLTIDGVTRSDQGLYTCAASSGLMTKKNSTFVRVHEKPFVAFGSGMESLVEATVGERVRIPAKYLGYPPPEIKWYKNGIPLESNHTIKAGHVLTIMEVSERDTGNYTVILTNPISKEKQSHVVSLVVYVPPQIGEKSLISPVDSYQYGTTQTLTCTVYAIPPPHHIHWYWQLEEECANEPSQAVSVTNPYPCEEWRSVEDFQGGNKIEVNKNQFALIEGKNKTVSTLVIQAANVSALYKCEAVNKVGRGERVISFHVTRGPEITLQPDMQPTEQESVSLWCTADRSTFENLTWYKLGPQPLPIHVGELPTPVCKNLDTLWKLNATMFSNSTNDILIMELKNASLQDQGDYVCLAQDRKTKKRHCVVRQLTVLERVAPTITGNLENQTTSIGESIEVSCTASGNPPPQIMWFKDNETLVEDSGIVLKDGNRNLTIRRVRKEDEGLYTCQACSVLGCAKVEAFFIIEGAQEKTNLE
# method-notes: phage binding screen on KDR-Fc; class legend in paragraph 246
property-label: binding result

Look over these answered cases.
{"columns": ["binder", "binding result"],
 "data": [
  ["VWECAKTFPFCHWF [phage isolate VWECAKTFPFCHWF]", "binds"],
  ["WVECWWKSGQCYEF [phage isolate WVECWWKSGQCYEF]", "binds"],
  ["GEQCSNLAVACCST [phage isolate GEQCSNLAVACCST]", "binds"],
  ["LNICKEDWYYCFLL [phage isolate LNICKEDWYYCFLL]", "binds"],
  ["PNTCETFDLYCWWI [phage isolate PNTCETFDLYCWWI]", "binds"],
  ["GITCYSDTGKCFSF [phage isolate GITCYSDTGKCFSF]", "binds"],
  ["TITCWMDTGHCMHE [phage isolate TITCWMDTGHCMHE]", "binds"],
  ["ANWCEEDWYYCYIT [phage isolate ANWCEEDWYYCYIT]", "binds"]
]}

Give one value of binding result per listed binder.
1. DFNCKMIDGFCLLK [phage isolate DFNCKMIDGFCLLK]
2. WIICDGNLGWCWEG [phage isolate WIICDGNLGWCWEG]
3. SDWCRVDWYYCWLM [phage isolate SDWCRVDWYYCWLM]
4. KELCEDDWYYCYLM [phage isolate KELCEDDWYYCYLM]
5. PTWCEDDWYYCWLF [phage isolate PTWCEDDWYYCWLF]

Response given:
binds
binds
binds
binds
binds
